Attribute: Avg % Knockdown
Tested on: TTR mRNA
PROTOCOL SUMMARY: TTR mRNA knockdown in primary human hepatocytes by quantitative PCR (Tables 34, 35)
Assay type: cell-based
ASSAY CONDITIONS: TTR mRNA in PHH; LNP dose 300 ng mRNA cargo; gRNA:mRNA 1:2; 96 hours after treatment; biological triplicates; vs untreated control
Strand notation (5' to 3'): a small letter for the sugar, then the base; units joined by * are phosphorothioate-linked, units joined directly phosphodiester-linked; [ ] holds rarer units or linkages, { } end groups; capitals alone tell only the bases. m = 2'-O-methyl; r = 2'-OH (RNA)
READOUT NAME: Avg % Knockdown

1) G000493: TTR sgRNA modified sequence, Human, SEQ ID No. 100; guide sequence of CR003368 (nucleic acid) guide: mA*mA*mG*rUrGrCrCrUrUrCrCrArGrUrArArGrArUrUrGrUrUrUrUrArGrAmGmCmUmAmGmAmAmAmUmAmGmCrArArGrUrUrArArArArUrArArGrGrCrUrArGrUrCrCrGrUrUrArUrCrAmAmCmUmUmGmAmAmAmAmAmGmUmGmGmCmAmCmCmGmAmGmUmCmGmGmUmGmCmU*mU*mU*mU ... 87.53%
2) G000572: TTR sgRNA modified sequence, Human, SEQ ID No. 113; guide sequence of CR003385 (nucleic acid) guide: mC*mC*mC*rCrUrArCrUrCrCrUrArUrUrCrCrArCrCrArGrUrUrUrUrArGrAmGmCmUmAmGmAmAmAmUmAmGmCrArArGrUrUrArArArArUrArArGrGrCrUrArGrUrCrCrGrUrUrArUrCrAmAmCmUmUmGmAmAmAmAmAmGmUmGmGmCmAmCmCmGmAmGmUmCmGmGmUmGmCmU*mU*mU*mU ... 55.92%
3) G000481: TTR sgRNA modified sequence, Human, SEQ ID No. 88; guide sequence of CR003345 (nucleic acid) guide: mU*mC*mU*rArGrArArCrUrUrUrGrArCrCrArUrCrArGrGrUrUrUrUrArGrAmGmCmUmAmGmAmAmAmUmAmGmCrArArGrUrUrArArArArUrArArGrGrCrUrArGrUrCrCrGrUrUrArUrCrAmAmCmUmUmGmAmAmAmAmAmGmUmGmGmCmAmCmCmGmAmGmUmCmGmGmUmGmCmU*mU*mU*mU ... 91.39%
4) G000480: TTR sgRNA modified sequence, Human, SEQ ID No. 87; guide sequence of CR003353 (nucleic acid) guide: mA*mA*mA*rGrGrCrUrGrCrUrGrArUrGrArCrArCrCrUrGrUrUrUrUrArGrAmGmCmUmAmGmAmAmAmUmAmGmCrArArGrUrUrArArArArUrArArGrGrCrUrArGrUrCrCrGrUrUrArUrCrAmAmCmUmUmGmAmAmAmAmAmGmUmGmGmCmAmCmCmGmAmGmUmCmGmGmUmGmCmU*mU*mU*mU ... 95.19%
